Tested on: HIV-1 in MT-4 cells
Test Method Notes: Viable cell counts, cytolytic effect of HIV-1 on MT-4 cells
Type: cell-based
Condition Description: Human immunodeficiency virus 1, MT4, 144 h; MT-4 cells, HIV-1, 6 days in culture, 2 μg/ml of compound; read-out: Cell Viability %
Measurement Kind: viability at 2 µg/mL (%)

>>> test_value("Nc1ccn(C2C[S+]([O-])C(CO)O2)c(=O)n1 (single isomer, unassigned) [cis-XII (b)]")
14
>>> test_value("O=c1[nH]cnc2c1ncn2C1CSC(CO)O1 (stereo not drawn) [cis-LVI]")
11
>>> test_value("O=c1ccn(C2CSC(CO)O2)c(=O)[nH]1 (stereo not drawn) [cis-XVIII]")
14
>>> test_value("CN(C)C=Nc1ccn(C2CSC(CO)O2)c(=O)n1 (stereo not drawn) [cis-LIII]")
18
